Assay: Tanguay_ZF_120hpf_PE_legacy: (Legacy) Oregon State University Tanguay Lab 120 Hour Post-fertilization zebrafish Assay for Pericardial Edema (AID 2283640)
Records with an inconclusive call do not appear. Calls of active or inactive are those of the source. Rule for the calls: active = hit-call score of the fitted dose curve at least 0.9, where 1 is the maximum; inconclusive = response in the unintended direction; inactive = score below 0.9.
Classes used: active, inactive

- compound: "CCCCOC(=O)c1ccccc1C(=O)O"
  class: "inactive"
- compound: "CC(COc1ccc(Oc2ccccc2)cc1)Oc1ccccn1 (configuration not stated)"
  class: "inactive"
- compound: "CCc1cccc(CC)c1N(COC)C(=O)CCl"
  class: "inactive"
- compound: "CCCSP(=O)(OCC)SCCC"
  class: "inactive"
- compound: "CCOP(=O)(OCC)Oc1cc(C)nc(C(C)C)n1"
  class: "inactive"
- compound: "Nc1c(Cl)cc([N+](=O)[O-])cc1Cl"
  class: "active"
- compound: "CCCCSP(=O)(SCCCC)SCCCC"
  class: "inactive"
- compound: "CCCOc1nn(C(=O)NS(=O)(=O)c2ccccc2C(=O)OC)c(=O)n1C"
  class: "inactive"
- compound: "CCOP(=S)(OCC)SCCSCC"
  class: "inactive"
- compound: "CSc1nnc(C(C)(C)C)c(=O)n1N"
  class: "inactive"
- compound: "CC1(C(=O)Nc2ccc(O)c(Cl)c2Cl)CCCCC1"
  class: "inactive"
- compound: "CCOP(=S)(OCC)OC(Cl)C(Cl)(Cl)Cl (configuration not stated)"
  class: "inactive"
- compound: "CSc1nc(NC(C)C)nc(NC(C)C)n1"
  class: "inactive"
- compound: "CCC(=NOC/C=C/Cl)C1=C(O)CC(C2CCOCC2)CC1=O (configuration not stated)"
  class: "inactive"
- compound: "N#CSCSC#N"
  class: "inactive"
- compound: "CNC(=O)ON=C(SC)C(=O)N(C)C"
  class: "inactive"
- compound: "CCCCOC(=O)[C@@H](C)Oc1ccc(Oc2ccc(C#N)cc2F)cc1"
  class: "inactive"
- compound: "CC(C)=CC1C(C(=O)OCN2C(=O)C3=C(CCCC3)C2=O)C1(C)C (configuration not stated)"
  class: "inactive"
- compound: "COP(=O)(OC)C(O)C(Cl)(Cl)Cl (configuration not stated)"
  class: "inactive"
- compound: "CSC1=N[C@@](C)(c2ccccc2)C(=O)N1Nc1ccccc1"
  class: "active"
- compound: "COP(=O)(OC)SCn1c(=O)oc2cc(Cl)cnc21"
  class: "active"
- compound: "CCCOCC(=Nc1ccc(Cl)cc1C(F)(F)F)n1ccnc1"
  class: "inactive"
- compound: "CN1COCN(Cc2cnc(Cl)s2)C1=N[N+](=O)[O-]"
  class: "inactive"
- compound: "CC(C)[C@H](C(=O)O[C@H](C#N)c1cccc(Oc2ccccc2)c1)c1ccc(Cl)cc1"
  class: "active"
- compound: "CCC(=O)Nc1ccc(Cl)c(Cl)c1"
  class: "inactive"
- compound: "COc1cccc(C(=O)NN(C(=O)c2cc(C)cc(C)c2)C(C)(C)C)c1C"
  class: "inactive"
- compound: "O=C(O)c1cc(Oc2ccc(C(F)(F)F)cc2Cl)ccc1[N+](=O)[O-]"
  class: "inactive"
- compound: "Cc1cc(C2CC2)nc(Nc2ccccc2)n1"
  class: "inactive"
- compound: "CCc1cccc(C)c1N(C(=O)CCl)C(C)COC (configuration not stated)"
  class: "inactive"
- compound: "CNC(=O)Oc1cccc2c1OC(C)(C)O2"
  class: "inactive"
- compound: "CC(Oc1cccc(Cl)c1)C(=O)O (configuration not stated)"
  class: "inactive"
- compound: "C[Si](Cn1cncn1)(c1ccc(F)cc1)c1ccc(F)cc1"
  class: "active"
- compound: "O=c1ccc(=O)[nH][nH]1"
  class: "inactive"
- compound: "CC[C@H](C)[C@H]1O[C@]2(C=C[C@@H]1C)C[C@@H]1C[C@@H](C/C=C(\\C)[C@@H](O[C@H]3C[C@H](OC)[C@@H](O[C@H]4C[C@H](OC)[C@@H](NC)[C@H](C)O4)[C@H](C)O3)[C@@H](C)/C=C/C=C3\\CO[C@@H]4[C@H](O)C(C)=C[C@@H](C(=O)O1)[C@]34O)O2"
  class: "inactive"
- compound: "CON=C(C(=O)OC)c1ccccc1CON=C(C)c1cccc(C(F)(F)F)c1"
  class: "active"
- compound: "CCOP(=S)(Oc1cnc(C(C)(C)C)nc1)OC(C)C (configuration not stated)"
  class: "inactive"
- compound: "S=C1NCCN1"
  class: "inactive"
